Molecular target: NPC1-like intracellular cholesterol transporter 1 (Mus musculus) (UniProt Q6T3U4)
Sequence (Q6T3U4 21-1333 limits assumed): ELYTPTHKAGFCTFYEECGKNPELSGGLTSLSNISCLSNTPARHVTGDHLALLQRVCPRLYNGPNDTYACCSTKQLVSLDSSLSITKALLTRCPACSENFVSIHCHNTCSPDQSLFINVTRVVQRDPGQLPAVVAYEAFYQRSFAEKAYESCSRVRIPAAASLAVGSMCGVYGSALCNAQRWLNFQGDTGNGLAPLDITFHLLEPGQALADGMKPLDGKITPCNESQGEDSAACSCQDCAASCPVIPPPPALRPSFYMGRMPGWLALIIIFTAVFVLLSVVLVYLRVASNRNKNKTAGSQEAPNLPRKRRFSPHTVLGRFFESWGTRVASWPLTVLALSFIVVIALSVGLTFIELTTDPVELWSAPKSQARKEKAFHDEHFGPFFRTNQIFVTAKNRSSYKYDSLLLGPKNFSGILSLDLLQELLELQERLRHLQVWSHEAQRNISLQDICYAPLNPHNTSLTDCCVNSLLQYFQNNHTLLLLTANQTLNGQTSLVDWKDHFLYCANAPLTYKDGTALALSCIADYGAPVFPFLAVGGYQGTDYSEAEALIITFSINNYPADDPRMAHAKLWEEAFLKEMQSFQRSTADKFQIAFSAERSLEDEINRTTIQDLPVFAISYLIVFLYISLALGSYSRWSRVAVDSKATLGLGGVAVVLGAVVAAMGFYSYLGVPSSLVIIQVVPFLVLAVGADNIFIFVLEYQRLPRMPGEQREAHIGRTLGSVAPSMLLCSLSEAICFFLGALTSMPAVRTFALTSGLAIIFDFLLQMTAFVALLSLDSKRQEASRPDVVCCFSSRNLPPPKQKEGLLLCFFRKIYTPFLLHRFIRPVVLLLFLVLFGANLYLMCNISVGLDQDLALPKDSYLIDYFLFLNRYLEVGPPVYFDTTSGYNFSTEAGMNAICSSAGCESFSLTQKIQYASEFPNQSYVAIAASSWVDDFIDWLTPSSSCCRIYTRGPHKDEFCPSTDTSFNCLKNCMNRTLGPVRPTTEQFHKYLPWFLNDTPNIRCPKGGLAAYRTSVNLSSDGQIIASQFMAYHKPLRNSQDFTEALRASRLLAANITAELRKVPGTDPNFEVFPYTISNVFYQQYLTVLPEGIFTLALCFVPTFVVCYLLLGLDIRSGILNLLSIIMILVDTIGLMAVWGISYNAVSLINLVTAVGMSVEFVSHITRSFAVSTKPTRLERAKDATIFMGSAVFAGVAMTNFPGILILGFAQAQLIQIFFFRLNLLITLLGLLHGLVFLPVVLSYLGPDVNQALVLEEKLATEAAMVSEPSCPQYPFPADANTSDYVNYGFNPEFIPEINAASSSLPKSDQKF
Assay: Displacement of [35S](2S,3S,4S,5R,6S)-6-(4-((2S,3R)-3-((S)-3-(4-fluorophenyl)-3-hydroxypropyl)-1-(4-(3-(methylsulfonamido)prop-1-ynyl)phenyl)-4-oxoazetidin-2-yl)phenoxy)-3,4,5-trihydroxytetrahydro-2H-pyran-2-carboxylic acid from mouse NCP1L1 expressed in mouse brush border membrane
Type: cell membranes
Parameter measured: IC50 (µM)
Only the number, expressed in µM, is required.

{"Mol smiles": "CC(C)(C)OC(=O)N1CCN(C(=O)CN2CN(c3ccccc3)C3(CCN(C(=O)c4ccc(C5CCCCC5)cc4)CC3)C2=O)CC1", "IC50 [µM]": 49}

Hello, please tell me recorded IC50 for this one: CCc1nn(CC)c(C2CCN(C(=O)CN3CN(c4ccccc4)C4(CCN(C(=O)c5ccc(C(C)(C)C)cc5)CC4)C3=O)CC2)c1C
40

Hello, please tell me recorded IC50 for this one: O=C(CN1CN(c2ccccc2)C2(CCN(C(=O)c3ccc(C4CCCCC4)cc3)CC2)C1=O)N1CCN(C(=O)c2ccccc2)CC1
19

Hello, please tell me recorded IC50 for this one: CC(C)(C)OC(=O)N1CCN(C(=O)CN2CN(c3ccccc3)C3(CCN(C(=O)c4ccc(C(C)(C)C)cc4)CC3)C2=O)CC1
49
